Settings: pH 2.7
Marks after values point to notes of the source that are not given here.
Provide the recorded LogP for the entries that follow.

CCn1c(/C(=N\OCc2cccc(NC(=O)OCc3ccccc3)n2)c2ccccc2)noc1=O : 4.24 [a]
Cn1c(/C(=N\OCc2csc(NC(=O)COc3ccc(Br)cc3)n2)c2ccccc2)noc1=O : 3.94 [a]
CCC(C)COC(=O)Nc1cccc(CO/N=C(/c2ccccc2)c2noc(=O)n2C)n1 (centres unmarked) : 4.44 [a]
Cc1ccc(C)c(C(=O)Nc2nc(CO/N=C(/c3ccccc3)c3noc(=O)n3C)cs2)c1 : 3.94 [a]

Go through the list and state LogP for each entry.
1. COc1cccc(C(=NOCc2cccc(NC(=O)C(C)(C)C)n2)c2noc(=O)n2C)c1
2. CCCCC(C)(C)C(=O)Nc1nc(CO/N=C(/c2ccccc2)c2noc(=O)n2C)cs1
3. C#CCCOC(=O)Nc1cccc(CO/N=C(/c2ccccc2)c2noc(=O)n2C(F)F)n1
4. CCCCC(=O)Nc1nc(CO/N=C(/c2ccccc2Cl)c2noc(=O)n2C)cs1
5. Cc1ccccc1OCC(=O)Nc1cccc(CO/N=C(/c2ccccc2)c2noc(=O)n2C)n1
6. Cn1c(/C(=N\OCc2csc(NC(=O)c3ccc(Br)cc3)n2)c2ccccc2)noc1=O
7. CC(Oc1ccccc1)C(=O)Nc1nc(CON=C(c2ccccc2Cl)c2noc(=O)n2C)cs1 (centres unmarked)
8. Cn1c(/C(=N\OCc2cccc(NC(=O)c3ccccc3Br)n2)c2ccccc2)noc1=O

["3.55 [a]", "4.48 [a]", "3.64 [a]", "3.53 [a]", "4.17 [a]", "4.01 [a]", "3.81 [a]", "3.67 [a]"]
